Below is a list of entries, each paired with its recorded SIp (ratio of EC50 against human cells to EC50 against promastigotes) value.
Tested on: L. infantum promastigotes
measurement-description: Leishmanicidal activity on promastigotes (PI exclusion, flow cytometry)
Assay type: cell-based, Leishmania infantum
measurement-context: HepG2 / promastigotes
Quick one: just the number, no unit, thanks!

Worked examples follow.
compound	recorded-number
NCCCCc1cn(-c2ccc(-c3nc(-c4ccccc4)c(-c4ccccc4)s3)c(OCCN3CCNC3=O)c2)nn1.O=C(O)C(F)(F)F [19a]	2.5
NCCCc1cn(-c2ccc(-c3nc(CCc4ccccc4)cs3)c(OCCN3CCNC3=O)c2)nn1.O=C(O)C(F)(F)F [12h]	2.0

# evaluate next
Query :: Name the recorded SIp (ratio of EC50 against human cells to EC50 against promastigotes) for NCCCCc1cn(-c2ccc(-c3nc(CCc4ccc5c(c4)CCO5)cs3)c(OCCN3CCNC3=O)c2)nn1.O=C(O)C(F)(F)F [12r] .
Result :: 1.2

====

tested-target: LiTryR (Leishmania infantum, UniProt A4HSF7)
Construct: HIS (N); made in house; host or cells: E. coli BL21 (DE3) Rossetta
Sequence (A4HSF7 1-491): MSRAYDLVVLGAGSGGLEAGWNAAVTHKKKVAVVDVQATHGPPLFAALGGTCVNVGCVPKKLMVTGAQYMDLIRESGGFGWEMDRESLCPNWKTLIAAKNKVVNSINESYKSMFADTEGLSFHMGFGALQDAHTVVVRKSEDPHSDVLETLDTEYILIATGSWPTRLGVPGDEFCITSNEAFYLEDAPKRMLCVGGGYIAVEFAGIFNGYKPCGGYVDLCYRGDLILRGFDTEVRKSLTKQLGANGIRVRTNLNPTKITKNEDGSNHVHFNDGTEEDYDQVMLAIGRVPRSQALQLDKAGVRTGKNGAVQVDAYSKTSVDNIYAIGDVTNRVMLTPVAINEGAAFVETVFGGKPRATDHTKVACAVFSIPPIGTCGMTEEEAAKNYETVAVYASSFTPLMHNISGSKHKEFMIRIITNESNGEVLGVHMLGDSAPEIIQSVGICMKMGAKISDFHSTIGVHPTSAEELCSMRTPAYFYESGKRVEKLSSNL
measurement-description: Time-dependent inhibition kinetics of LiTryR (modified DTNB-coupled assay)
Type: biochemical
measurement-context: [TS2] 12.5 μM; read-out: Ki*^app
observable: pKi
A value of pKi is the negative decimal logarithm of a concentration given in moles per litre.

Query :: // lookup pKi for NCCCCc1cn(-c2ccc(-c3nc(-c4ccccc4)c(-c4ccccc4)s3)c(OCCN3CCNC3=O)c2)nn1.O=C(O)C(F)(F)F [19a]
Result :: 6.30

====

Reported pIC50 values for a set of compounds
tested-target: TbTryR (Trypanosoma brucei brucei, UniProt P39051)
Construct: HIS; made in house; host or cells: E. coli
Sequence (P39051 whole entry): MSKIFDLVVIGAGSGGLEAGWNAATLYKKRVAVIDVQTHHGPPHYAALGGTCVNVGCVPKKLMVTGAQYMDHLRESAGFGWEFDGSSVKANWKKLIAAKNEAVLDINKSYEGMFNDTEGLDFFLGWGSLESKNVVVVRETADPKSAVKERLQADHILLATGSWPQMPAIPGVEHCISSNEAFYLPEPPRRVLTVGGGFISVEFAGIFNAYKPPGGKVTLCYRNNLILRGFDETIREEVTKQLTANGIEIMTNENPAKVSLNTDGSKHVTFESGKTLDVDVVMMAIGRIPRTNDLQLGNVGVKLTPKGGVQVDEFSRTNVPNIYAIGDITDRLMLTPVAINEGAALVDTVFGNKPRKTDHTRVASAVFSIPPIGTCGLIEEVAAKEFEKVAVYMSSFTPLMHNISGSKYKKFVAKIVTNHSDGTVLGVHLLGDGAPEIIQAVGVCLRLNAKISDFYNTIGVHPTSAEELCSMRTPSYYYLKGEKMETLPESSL
measurement-description: TryR oxidoreductase activity, DTNB-coupled assay (TbTryR)
Format: biochemical
measurement-context: read-out: IC50, oxidoreductase activity of TbTryR
Scale for pIC50: -log10 of concentration given in mol/L; no unit attached.

compound	pIC50
NCCCCc1cn(-c2ccc(-c3nc(-c4ccccc4)cs3)c(OCCN3CCNC3=O)c2)nn1.O=C(O)C(F)(F)F [12n]	4.90

Query :: Give the measured pIC50 of NCCCCc1cn(-c2ccc(-c3nc(CCc4ccc(-c5ccccc5)cc4)cs3)c(OCCN3CCNC3=O)c2)nn1.O=C(O)C(F)(F)F [12c] .
Result :: 5.00

Query :: Query (compound): NCCCCc1cn(-c2ccc(-c3nc(CCc4ccc5ccccc5c4)cs3)c(OCCN3CCNC3=O)c2)nn1.O=C(O)C(F)(F)F [12b] ; field requested: pIC50
Result :: 5.01

====

tested-target: LiTryR (Leishmania infantum)
Construct: HIS (N); made in house; host or cells: E. coli BL21 (DE3) Rossetta
measurement-description: Time-dependent inhibition kinetics of LiTryR (modified DTNB-coupled assay)
Format: biochemical
measurement-context: [TS2] 50 μM; read-out: Ki*^app
observable: Ki (nM)
# unit: nM | format: bare number

Query :: For the molecule shown here, NCCCCc1cn(-c2ccc(-c3nc(-c4ccccc4)c(-c4ccccc4)s3)c(OCCN3CCNC3=O)c2)nn1.O=C(O)C(F)(F)F [19a] , give the reported Ki.
Result :: 1400

====

Tested on: L. infantum axenic amastigotes
measurement-description: Leishmanicidal activity on axenic amastigotes (PI exclusion, flow cytometry)
Type: cell-based, Leishmania infantum
measurement-context: Leishmania infantum, 24 h, read-out: EC50 amastigotes
observable: EC50 (µM)
Write the number in µM without appending the unit.

Query :: Find EC50 (L. infantum axenic amastigotes) for the entry NCCCCc1cn(-c2ccc(-c3nc(CCc4ccc5oc6ccccc6c5c4)cs3)c(OCCN3CCNC3=O)c2)nn1.O=C(O)C(F)(F)F [12s]
Result :: 68.8

====

tested-target: LiTryR (Leishmania infantum)
Construct: HIS (N); made in house; host or cells: E. coli BL21 (DE3) Rossetta
measurement-description: Time-dependent inhibition kinetics of LiTryR (modified DTNB-coupled assay)
Assay type: biochemical
measurement-context: [TS2] 6.2 μM; read-out: Ki*^app
observable: Ki (µM)
Respond numerically; units are µM and should not be typed.

Query :: // Ki lookup, key: NCCCCc1cn(-c2ccc(-c3nc(-c4ccccc4)c(-c4ccccc4)s3)c(OCCN3CCNC3=O)c2)nn1.O=C(O)C(F)(F)F [19a]
Result :: 0.5

====

tested-target: TbTryR (Trypanosoma brucei brucei, UniProt P39051)
Construct: HIS; made in house; host or cells: E. coli
measurement-description: TryR oxidoreductase activity, DTNB-coupled assay (TbTryR)
Type: biochemical
measurement-context: read-out: IC50, oxidoreductase activity of TbTryR
Documented pIC50 across a set of compounds
Note on units: pIC50 is unitless, being -log10 of a concentration expressed in mol/L.

Some compounds with recorded pIC50:
compound	recorded-number
NCCCCc1cn(-c2ccc(-c3nc(-c4ccccc4)c(-c4ccccc4)s3)c(OCCN3CCNC3=O)c2)nn1.O=C(O)C(F)(F)F [19a]	5.14
NCCCCc1cn(-c2ccc(-c3nc(CCc4ccccc4)cs3)c(OCCN3CCNC3=O)c2)nn1 [12a]	4.88

Query :: Requested read-out: pIC50. Entry: NCCCCc1cn(-c2ccc(-c3nc(-c4cccc(-c5csc(-c6ccc(-n7cc(CCCCN)nn7)cc6OCCN6CCNC6=O)n5)c4)cs3)c(OCCN3CCNC3=O)c2)nn1.O=C(O)C(F)(F)F.O=C(O)C(F)(F)F [compound 22]
Result :: 6.00

====

tested-target: LiTryR (Leishmania infantum, UniProt A4HSF7)
Construct: HIS (N); made in house; host or cells: E. coli BL21 (DE3) Rossetta
measurement-description: Time-dependent inhibition kinetics of LiTryR (modified DTNB-coupled assay)
Assay type: biochemical
measurement-context: [TS2] 12.5 μM; read-out: Ki^app
Procedure: The inhibitory constants Ki and Ki* for 19a were calculated following a slightly modified version of the standard DTNB-coupled assay.[52] […] TryR oxidoreductase activity was monitored at 26 °C by an increase in absorbance at 412 nm in an EnSpire Multimode Plate Reader (PerkinElmer, Waltham, MA). […] The Ki value for the formation of the EI complex was determined by fitting the Ki^app values obtained at different TS2 concentrations to eq 3. […]
observable: Ki (µM)
Answer format: numeric, µM implied, no suffix.

Query :: Given the entry NCCCCc1cn(-c2ccc(-c3nc(-c4ccccc4)c(-c4ccccc4)s3)c(OCCN3CCNC3=O)c2)nn1.O=C(O)C(F)(F)F [19a] , report its measured Ki.
Result :: 5.2

====

Tested on: L. infantum promastigotes
measurement-description: Leishmanicidal activity on promastigotes (PI exclusion, flow cytometry)
Assay type: cell-based, Leishmania infantum
measurement-context: HepG2 / promastigotes
Threshold 9: SIp (ratio of EC50 against human cells to EC50 against promastigotes) strictly smaller gives True, otherwise False.

// below: answered compounds
compound	tested-target	class
NCCCCc1cn(-c2ccc(-c3nc(-c4cccc(-c5csc(-c6ccc(-n7cc(CCCCN)nn7)cc6OCCN6CCNC6=O)n5)c4)cs3)c(OCCN3CCNC3=O)c2)nn1.O=C(O)C(F)(F)F.O=C(O)C(F)(F)F [compound 22]	L. infantum promastigotes	True
NCCCc1cn(-c2ccc(-c3nc(CCc4ccc(-c5ccccc5)cc4)cs3)c(OCCN3CCNC3=O)c2)nn1.O=C(O)C(F)(F)F [12i]	L. infantum promastigotes	False
NCCCCc1cn(-c2ccc(-c3nc(CCc4ccc5ccccc5c4)cs3)c(OCCN3CCNC3=O)c2)nn1.O=C(O)C(F)(F)F [12b]	L. infantum promastigotes	True

Shifting focus to the compound that follows.
Query :: Does the reported SIp (ratio of EC50 against human cells to EC50 against promastigotes) of CC(C)(C)Cc1csc(-c2ccc(-n3cc(CCCCN)nn3)cc2OCCN2CCNC2=O)n1.O=C(O)C(F)(F)F [12m] stay below 9?
Result :: True

====

tested-target: LiTryR (Leishmania infantum, UniProt A4HSF7)
Construct: HIS (N); made in house; host or cells: E. coli BL21 (DE3) Rossetta
measurement-description: Time-dependent inhibition kinetics of LiTryR (modified DTNB-coupled assay)
Type: biochemical
measurement-context: [TS2] 25 μM; read-out: Ki^app
observable: Ki (µM)
Answer in µM, number only, no unit symbol.

Query :: Give Ki (LiTryR (Leishmania infantum, UniProt A4HSF7)) of the following compound: NCCCCc1cn(-c2ccc(-c3nc(-c4ccccc4)c(-c4ccccc4)s3)c(OCCN3CCNC3=O)c2)nn1.O=C(O)C(F)(F)F [19a]
Result :: 8.3

====

tested-target: LiTryR dimer (Leishmania infantum)
Sequence (A4HSF7 1-491): as the sequence (A4HSF7 1-491) above
measurement-description: biochemical
measurement-context: 400 nM LiTryR, 16 h at 37 °C; read-out: IC50^dim, LiTryR monomer displacement (dimer quantitation ELISA)
observable: IC50

compound	tested-target	result
NCCCCc1cn(-c2ccc(-c3nc(CCc4ccc5c(c4)CCCN5)cs3)c(OCCN3CCNC3=O)c2)nn1.O=C(O)C(F)(F)F.O=C(O)C(F)(F)F [12q]	LiTryR dimer (Leishmania infantum)	> 75 µM
CC(C)Oc1csc(-c2ccc(-n3cc(CCCCN)nn3)cc2OCCN2CCNC2=O)n1 [12l]	LiTryR dimer (Leishmania infantum)	> 75 µM
NCCCCc1cn(-c2ccc(-c3nc(CCc4ccc5c(c4)CCO5)cs3)c(OCCN3CCNC3=O)c2)nn1.O=C(O)C(F)(F)F [12r]	LiTryR dimer (Leishmania infantum)	10.7 µM
CC(C)(C)Cc1csc(-c2ccc(-n3cc(CCCCN)nn3)cc2OCCN2CCNC2=O)n1.O=C(O)C(F)(F)F [12m]	LiTryR dimer (Leishmania infantum)	> 75 µM
O=C1NCCN1CCOc1cc(-n2cc(CCCCO)nn2)ccc1-c1nc(CCc2ccccc2)cs1 [12d]	LiTryR dimer (Leishmania infantum)	> 75 µM

Query :: Bench note: what IC50 did NCCCCc1cn(-c2ccc(-c3nc(-c4ccc(Oc5ccccc5)cc4)c(-c4ccccc4)s3)c(OCCN3CCNC3=O)c2)nn1.O=C(O)C(F)(F)F [19c] show?
Result :: 9 µM

Query :: Which IC50 reading was recorded for the compound NCCCc1cn(-c2ccc(-c3nc(CCc4ccccc4)cs3)c(OCCN3CCNC3=O)c2)nn1.O=C(O)C(F)(F)F [12h] ?
Result :: > 75 µM

These entries and their values trace back to paper PMC8480782.
